// melting point lookup, one value per entry
ASSAY_READOUT: melting point

[[record]]
compound_structure = "Cc1ccc(C(=O)NCCO)cc1-n1c(C)cc(OCc2ccccc2CNC(=O)Nc2cc(C(C)(C)C)nn2-c2ccc(O)c(Cl)c2)c(Cl)c1=O"
reported_measurement = "195 to 196 °C"

[[record]]
compound_structure = "COC(=O)c1ccc(C)c(-n2c(C)cc(OCc3ccccc3CNC(=O)Nc3cc(C(C)(C)C)nn3-c3ccc(Cl)c(O)c3)c(Cl)c2=O)c1"
reported_measurement = "193 to 195 °C"

[[record]]
compound_structure = "COC(=O)c1ccc(C)c(-n2c(C)cc(OCc3ccccc3CNC(=O)Nc3cc(C(C)(C)C)nn3-c3cccc(OCCO)c3)c(Cl)c2=O)c1"
reported_measurement = "147 to 148 °C"

[[record]]
compound_structure = "CNC(=O)CNC(=O)c1ccc(C)c(-n2c(C)cc(OCc3ccccc3CNC(=O)Nc3cc(C(C)(C)C)nn3-c3ccc(Cl)c(O)c3)c(Cl)c2=O)c1"
reported_measurement = "179 to 181 °C"

[[record]]
compound_structure = "Cc1ccc(C(=O)NCCO)cc1-n1c(C)cc(OCc2ccccc2CNC(=O)Nc2cc(C(C)(C)C)nn2-c2ccc(Cl)c(O)c2)c(Cl)c1=O"
reported_measurement = "196 to 197 °C"

